Provenance of the data: PubChem BioAssay

- Test description: inhibitors of TNFa-induced NFkB p65 translocation, primary screen, imaging, HUVEC, MLSMR starter and 10KST1 sets (AID 438);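 further: compound added about 3h40 before a 20 min TNFalpha stimulation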
- Experimental setup: HUVEC TNFa-induced p65 nuclear translocation; measured here: nuclei count (cytotoxicity indicator), at 2.08 µM
Readout: cell count
# respond with the number and nothing more

Observe how each entry below is paired with its result.
- Compound: "Cn1nc(C(=O)Nc2cccc(C(F)(F)F)c2)ccc1=O"
  Observed value: 357
- Compound: "CC(OC(=O)CNC(=O)C12CC3CC(CC(C3)C1)C2)C(=O)Nc1ccc(N2CCOCC2)cc1 (stereo not drawn)"
  Observed value: 663
- Compound: "O=C(Nc1ccc(N2CCCC2)cc1)c1ccc(Br)o1"
  Observed value: 303
- Compound: "COc1ccc(NCc2nnc(SCC(=O)Nc3cc(C)cc(C)c3)o2)cc1"
  Observed value: 396
- Compound: "COc1cccc(NC(=O)CSc2nnc(Cc3cccn3C)n2-c2ccc(F)cc2)c1"
  Observed value: 567

Sample `Cn1c(Cc2csc(N)n2)nnc1SCC(=O)NCc1ccccc1` — what was its cell count?
447

Subsequent entry: `Cc1cc(C)cc(NC(=O)CN(C)S(=O)(=O)c2cnc[nH]2)c1`
484

Subsequent entry: `CCOc1cc(NC(=O)c2ccccn2)c(OCC)cc1NC(=O)CC(C)C`
609

Subsequent entry: `O=c1oc2ccccc2c(O)c1CN1CCCCC1`
361

Subsequent entry: `Cc1ccc(CNC(=O)c2coc(=O)c3ccccc23)o1`
581

Subsequent entry: `Cc1cccc2c1N(CC(=O)OC(C)C)C(=O)C2=O`
854

Subsequent entry: O=C1OCCC1Sc1ncnc2sccc12 (stereo not drawn)
498

Subsequent entry: `CCOC(=O)Cn1c(S(=O)(=O)Cc2ccccc2)nc2ccccc21`
811

Subsequent entry: `c1ccc2c(c1)C(=Nn1cnnc1)c1ccccc1-2`
606

Subsequent entry: `Cc1ccc(C)c(-c2nc3ccc(N)cc3[nH]2)c1`
340

====

- Test description: reduction of polyQ htt aggregates in cells – imaging, exon1htt(103Q)mCFP cells, high-content imaging, primary screen (AID 483);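 further: compound exposure lasted 3 days before fixation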
- Experimental setup: exon1htt(103Q)mCFP cell line, aggregate imaging, at 2 µM; stronger effect = higher value
Activity calls are given as the source filed them.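 How the source made its calls: active means visual image review flags a hit and inhibition of aggregation exceeds 20%; inconclusive means visual hit but inhibition at or below 20%; inactive means no hit on visual image review.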
Readout: inhibition of aggregation

Observe how each entry below is paired with its result.
- Molecule: "COc1cccc(OC)c1C(=O)N1CCN(S(=O)(=O)c2ccccc2)CC1"
  Observed value: "-1.7% (inactive)"
- Molecule: "CCCN(CCC)C(=O)C1CCN(c2cc(C)nc3c(-c4ccc(OC)c(OC)c4)c(C)nn23)CC1"
  Observed value: "-2.4% (inactive)"

Sample CCC(C)(C(=O)NC1CCCC1)N(Cc1cccs1)C(=O)Cc1cccs1 (stereo not given) — what was its inhibition of aggregation?
21% (inactive)

Subsequent entry: `COCCNc1nc(SCC(=O)N2CCN(c3ccccc3)CC2)nc2ccccc12`
-53.8% (inactive)

Subsequent entry: `CS(=O)(=O)Nc1ccc(C(=O)NCCc2ccccc2)cc1`
-9.2% (inactive)

====

Listed compounds paired with reported fluorescence slope
- Tested system: Voltage-gated potassium channel subunit beta-2 (Rattus norvegicus) (UniProt P62483)
- Sequence (P62483 whole entry, looked up): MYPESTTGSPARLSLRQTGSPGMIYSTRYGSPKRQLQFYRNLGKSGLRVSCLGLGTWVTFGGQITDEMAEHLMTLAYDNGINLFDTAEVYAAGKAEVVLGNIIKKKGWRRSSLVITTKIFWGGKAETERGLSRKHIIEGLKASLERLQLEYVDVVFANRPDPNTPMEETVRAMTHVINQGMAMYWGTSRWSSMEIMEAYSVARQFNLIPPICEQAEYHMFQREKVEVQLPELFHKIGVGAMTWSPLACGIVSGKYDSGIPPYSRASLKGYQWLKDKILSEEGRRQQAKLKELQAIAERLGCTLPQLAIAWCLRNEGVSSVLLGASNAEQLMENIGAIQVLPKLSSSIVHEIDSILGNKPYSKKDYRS
- Test description: inhibitors of rat Kvbeta2 reductase activity – biochemical, NADPH fluorescence, primary screen (AID 622);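 further: slope of raw intensity against log time taken from 70 to 1610 s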
- Experimental setup: recombinant KvBeta, 4-cyanobenzaldehyde reduction, at 10 µM, stronger effect = higher value
# respond with the number and nothing more

Sample `COc1ccc(N=C2C(=O)Nc3ccccc32)cc1` — what was its fluorescence slope?
-0.374

Subsequent entry: `Cc1cccc(-n2ncc3c(NCc4cccs4)ncnc32)c1`
-0.458

Subsequent entry: `Cc1onc(-c2ccccc2)c1C(=O)N1CCN(C(=O)c2ccco2)CC1`
-0.5

Subsequent entry: `CCN1C(=O)/C(=C/N(C)c2ccccc2)OC1=S`
-0.469

Subsequent entry: `CCCS(=O)(=O)C(=C1Nc2ccccc2N1)S(=O)(=O)CCC`
-0.63

Subsequent entry: `CCCn1c(SCC(=O)NC(C)(C)C)nnc1C(C)C`
-0.537

====

- Tested system: Alpha-2C adrenergic receptor (Homo sapiens)
- Test description: compounds altering alpha2C-coupled GIRK flux – cell-based, HEK293 alpha2C/GIRK1/2, thallium flux, primary screen (AID 624);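 further: slope of fluorescence ratio to pre-addition baseline per second over 15 to 24 s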
- Experimental setup: thallium flux BTC fluorescence, at 10 µM, actives lie on both sides
One threshold, 0.006, splits the recorded slope values: lower ones are y, equal or higher ones are n.

See these solved cases before continuing.
- Entry smiles: "COc1ccccc1C(=O)Nc1nc2ccc(S(C)(=O)=O)cc2s1"
  Tested system: "Alpha-2C adrenergic receptor (Homo sapiens)"
  Class: "n"
- Entry smiles: "CCOC(=O)c1oc2cc(OCC(N)=O)ccc2c(=O)c1-c1ccc(OC)c(OC)c1"
  Tested system: "Alpha-2C adrenergic receptor (Homo sapiens)"
  Class: "y"
- Entry smiles: "COc1ccccc1OCc1ccc(C(=O)N2CCN(C(=O)c3ccco3)CC2)cc1"
  Tested system: "Alpha-2C adrenergic receptor (Homo sapiens)"
  Class: "y"
- Entry smiles: "CCCC(=O)n1nc(-c2ccc(OC)cc2)nc1N"
  Tested system: "Alpha-2C adrenergic receptor (Homo sapiens)"
  Class: "y"

Next item in the queue.
Field: below-cutoff. Rule: recorded slope strictly less than 0.006. Subject: `Cc1ccc(S(=O)(=O)N2CCC(C(=O)N3CCN(Cc4ccccc4)CC3)CC2)cc1`
n

====

- Test description: reduction of polyQ htt aggregates in cells – imaging, exon1htt(103Q)mCFP cells, high-content imaging, primary screen (AID 483);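 further: compound exposure lasted 3 days before fixation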
- Experimental setup: exon1htt(103Q)mCFP cell line, aggregate imaging, at 2 µM; stronger effect = higher value
Readout: inhibition of aggregation (%)
Respond with the bare value in %.

Observe how each entry below is paired with its result.
- Compound: "Cc1ccc(-c2nnc(SC(C)C#N)n2N)cc1 (stereo not given)"
  Unit label: "%"
  inhibition of aggregation: -0.7
- Compound: "Cc1nn(-c2ccccc2)c2c1C(O)n1c(nc3ccccc31)S2 (stereo not given)"
  Unit label: "%"
  inhibition of aggregation: 8.2
- Compound: "c1ccc2nc(-c3nc4ccccc4[nH]3)ccc2c1"
  Unit label: "%"
  inhibition of aggregation: -19.5
- Compound: "COc1ccc(C(=O)N2CCN(C3CCCCC3)CC2)c(OC)c1"
  Unit label: "%"
  inhibition of aggregation: -21.3
- Compound: "COc1ccc(NC(=O)CSc2nc3c(c(=O)n2-c2ccc(F)cc2)SCC3)c(OC)c1"
  Unit label: "%"
  inhibition of aggregation: -14.2

Sample `CCOC(=O)C1CCN(CC(=O)c2c(C)[nH]c3ccccc23)CC1` — what was its inhibition of aggregation?
-5.8

Subsequent entry: O=C1c2oc3ccccc3c(=O)c2C(c2cccnc2)N1Cc1ccco1 (stereo not given)
-2.7

Subsequent entry: CN1C(=O)CC(C(=O)Nc2ccc(F)cc2)SC1=Nc1ccc2c(c1)OCO2 (stereo not given)
11.5

Subsequent entry: `O=c1[nH]c2ccccc2nc1NCCN1CCOCC1`
-31.4

Subsequent entry: `COc1ccc(C(=O)CSc2nnc(CNc3ccc(C)cc3C)o2)cc1`
3

Subsequent entry: COc1cc(C2c3c(oc4c(C)cc(C)cc4c3=O)C(=O)N2Cc2cccnc2)cc(OC)c1OC (stereo not given)
7.3

Subsequent entry: `Cn1cnc2c(N3CCCCC3)nccc21`
0.5

Subsequent entry: `O=C(Nc1ccc(SC(F)F)cc1)c1ccc2nccnc2c1`
14.5

Subsequent entry: `C#CCSc1nc(-c2cccs2)ccc1C#N`
-15

Subsequent entry: `COc1cccc(NC(=O)CSc2nnc(Cc3cccn3C)n2-c2ccc(F)cc2)c1`
38.3

Subsequent entry: O=C(Nc1nc(-c2ccccc2)cs1)C1CCCCN1S(=O)(=O)c1ccccc1 (stereo not given)
-0.8

Subsequent entry: `CCCCOc1ccc(-c2nnn(C(C)(C)C(=O)OC)n2)cc1`
7

Subsequent entry: `CCN1CCN(c2nc(C)nc3c2sc(=S)n3C)CC1`
7.2

Subsequent entry: `COc1cccc(NC(=O)C2CCN(c3ncccn3)CC2)c1`
-8.1

====

- Test description: inhibitors of TNFa-induced NFkB p65 translocation, primary screen, imaging, HUVEC, MLSMR starter and 10KST1 sets (AID 438);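 further: compound added about 3h40 before a 20 min TNFalpha stimulation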
- Experimental setup: HUVEC TNFa-induced p65 nuclear translocation; measured here: nuclei count (cytotoxicity indicator), at 2.08 µM
# label = YES if cell count >= 500 else NO

Is it the case that Cn1c(=O)oc2cc(S(=O)(=O)N3CCCC(C(=O)NCC4COc5ccccc5O4)C3)ccc21 (stereo not given) has cell count reaching or exceeding 500?
YES

====

Listed compounds paired with reported inhibition
- Test description: inhibitors of TNFa-induced NFkB p65 translocation, primary screen, imaging, HUVEC, MLSMR starter and 10KST1 sets (AID 438);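 further: compound added about 3h40 before a 20 min TNFalpha stimulation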;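 on inhibition: signal is the nuclear over cytoplasmic p65 intensity ratio per well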
- Experimental setup: HUVEC TNFa-induced p65 nuclear translocation; at 2 µM, stronger effect = higher value, 0% TNFa-plus-vehicle, 100% no-TNFa wells
Calls of active or inactive are those of the source.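 How the source made its calls: active means inhibition above 20% together with a positive visual image hit; inconclusive means visual image hit but inhibition not above 20%; inactive means no visual image hit.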

Observe how each entry below is paired with its result.
- Compound: "COc1ccc2nc(NC(=O)CSc3nnc(-c4ccoc4C)n3C)sc2c1"
  inhibition: "9.9% (inactive)"
- Compound: "CCOC(=O)c1sc(NC(=O)CNC(=O)Cn2cnc3sc(C)c(C)c3c2=O)nc1C"
  inhibition: "12.2% (inactive)"
- Compound: "COc1cccc(C(=O)n2cnnc2N)c1OC"
  inhibition: "-2.4% (inactive)"
- Compound: "Fc1cccc(-c2cc3nc4c(c(N5CCN(c6cnccn6)CC5)n3n2)CCCC4)c1"
  inhibition: "-3.1% (inactive)"
- Compound: "CCOC(=O)c1cc(C)n(CCCN2CCOCC2)c1C"
  inhibition: "2.6% (inactive)"

Sample `CN1CC(=O)N(CC(=O)NCCc2ccc(F)cc2)c2ccccc2C1=O` — what was its inhibition?
21% (inactive)

Subsequent entry: `N#Cc1c(-c2ccc3c(c2)OCO3)csc1N`
-4.7% (inactive)

Subsequent entry: Cc1ccc(C2CC(c3ccc(C)cc3)n3nc(N)nc3N2)cc1 (configuration not stated)
2.8% (inactive)

Subsequent entry: CC(Oc1ccccc1)C(=O)NC1CCN(Cc2ccccc2)CC1 (configuration not stated)
-5.2% (inactive)

Subsequent entry: CCOC(=O)C1CCCN(S(=O)(=O)c2cccs2)C1 (configuration not stated)
11.2% (inactive)

Subsequent entry: `Cc1cc(C)c2nc(C(F)(F)F)nc(NCCCN3CCCC3=O)c2c1`
5% (inactive)

Subsequent entry: `Nc1nc2sc3c(c2c(=O)s1)CCCC3`
0.2% (inactive)
